# settings: 298.15 K; 100 kPa; Liquid; Vibrating tube method
In this section we review reported mass density values for a set of compounds.

compound: CCCC(C)C [2-methylpentane]
endpointUnit: kg/m3
mass density: 648.48
--
compound: CCCCCC(C)C [2-methylheptane]
endpointUnit: kg/m3
mass density: 693.9
--
compound: CO [methanol]
endpointUnit: kg/m3
mass density: 786.57
--
compound: CCC(C)CC [3-methylpentane]
endpointUnit: kg/m3
mass density: 659.76

Measured values drawn from the NIST ThermoML archive (doi:10.1016/j.jct.2017.07.026) for this set.
